System: SNB-75
Assay: NCI tumour cell line growth inhibition, 48 h
Activity calls are given as the source filed them. Cut-off read from the data, not from the text of the source: active = GI50 up to about 1.1 µM and inactive = higher.
Possible outcomes: active, inactive

Compound | Category
CCOC(=O)c1ccc(/N=C\c2ccc(N(CCC#N)CCC#N)cc2)cc1 | inactive
N#CC1C[C@@H]2CC3(CCC2CN1C(=O)c1ccccc1)OCCO3 (stereo partly drawn) | inactive
COc1ccc(C(=O)/C=C/c2ccc(OCC(=N)N)cc2)cc1 | inactive
Cc1ccc2c(c1)C(=O)C(Cc1ccccc1C(=O)O)C2 (stereo not drawn) | inactive
O=C1c2ccncc2C(=O)c2c(O)ccc(O)c21 | inactive
COc1ccc(Nc2cnc3cc(N)ccc3n2)cc1OC | inactive
N#Cc1c(N2CCCC2)ncn(-c2ccccc2)c1=S | inactive
CN(N=O)C(=O)ON1C(=O)CCC1=O | inactive
CC1CCC2C(C)(C)CC3(C)CCC1C23O (stereo not drawn) | inactive
O=C1CCCCC/C1=C\c1cccc([N+](=O)[O-])c1 | inactive
CC(C)(Oc1ccc2c(=O)cc(-c3ccccc3)oc2c1)C(=O)N1CCN(c2ccccc2)CC1 | inactive
CCOC(=O)C(C[Si](C)(C)C)P(=O)(OCC)OCC (stereo not drawn) | inactive
CN1CC(=O)N2Cc3ccccc3-n3cccc3C2C1 (stereo not drawn) | inactive
c1ccc(COc2cccc3ccc[n+](Cc4ccccc4)c23)cc1 | inactive
Cn1c2ccccc2n2c3ncccc3c(=S)c(C#N)c12 | inactive
Nc1ccc2nc(-c3ccccn3)c(-c3ccccn3)nc2c1 | inactive
CN/N=C(/CCN1CCCC1)CC(c1ccccc1)c1c(O)c2ccccc2oc1=O (stereo not drawn) | inactive
Nc1c(-c2ccccc2-c2c(N)[n+]([O-])c3ccccc3[n+]2[O-])[n+]([O-])c2ccccc2[n+]1[O-] | inactive
CC(=O)O[C@H]1CCC2[C@@H]3CCC4Nc5c(cnn5-c5ccccc5)C[C@]4(C)C3CC[C@@]21C (stereo partly drawn) | inactive
CC(=O)Nc1ccc(/C=C2\N=C(c3ccccc3)OC2=O)cc1 | inactive
O=c1c2cc([N+](=O)[O-])ccc2n(Cc2ccccc2)n1Cc1ccccc1 | inactive
c1ccc2c(c1)nc1n2CCSC1 | inactive
CC(=O)OCC1OC(N2C(S)=C(C#N)C(c3ccco3)C(C(C)=O)=C2c2ccccc2)C(OC(C)=O)C(OC(C)=O)C1OC(C)=O (stereo not drawn) | inactive
O=C(Cc1ccc(Cl)c(Cl)c1)NCCCN1CCN(CCCN2CCCCC2)CC1 | inactive
O=C(Nc1ccccn1)c1cc2c(cc1Cl)Sc1nccn1S2(=O)=O | inactive
CC(C)(C)C(=O)N1C(C(=O)O)Cc2ccccc2[C@@H]1Cc1ccccc1 (stereo partly drawn) | inactive
COc1cc(Br)c(C2OCCCO2)cc1OCc1ccccc1 | inactive
CSc1nc2ccccc2c(=O)n1/N=C1\C(=O)N(CN2CCCCC2)c2ccc(Cl)cc21 | inactive
CC(=O)NNc1nc(C)c(C(=O)/C=C/c2ccc(N(C)C)cc2)s1 | inactive
COc1ccc(C(=O)C(CC2C(=O)CC(C)(C)C(C(=O)C(=O)Nc3c(C)cccc3C)C2=O)c2ccc(OC)cc2)cc1 (stereo not drawn) | inactive
COC(=O)/C=C1\C(=O)Nc2ccc(Br)cc21 | inactive
C1CCCCc2nc3c(nc2CCC1)c1nc2c(nc1c1nc4c(nc31)CCCCCCCC4)CCCCCCCC2 | inactive
COc1ccc(-c2cc(N3CCN(c4ccccc4)CC3)c(C#N)c(=O)o2)cc1 | inactive
O=C(O)C1CC2C=CCC(C2)C1 (stereo not drawn) | inactive
c1ccc2c(c1)Nc1ccccc1[P+]21c2ccccc2Nc2ccccc21 | active
CCCCCCCCCCCCCCCCCCOCC(C[N+]1(C)CCC(O)CC1)OCC (stereo not drawn) | inactive
CC[n+]1c(-c2ccccc2)c2cc(N)ccc2c2ccc(N)cc21 [HOMIDIUM BROMIDE] | active
CN1CCN(Cc2ccccc2)CC1CC#N (stereo not drawn) | inactive
O=C1N/C(=N/N=C\C(O)C(O)C(O)C(O)CO)N/C1=C/c1ccc(Cl)cc1 (stereo not drawn) | inactive
Cc1ccc(-c2c(-c3ccccc3)[nH]c(C)c2C(=O)ONC(=O)c2ccccc2)cc1 | inactive
CCCC(=O)CC(C)C(=O)C(=O)NC12CC3CC(CC(C3)C1)C2 (stereo not drawn) | inactive
CC(C)OP(=O)(OC(C)C)/C(F)=N/Nc1ccc([N+](=O)[O-])cc1 | inactive
COc1ccc2c(c1)CCc1cnn(C3OC(COC(C)=O)C(OC(C)=O)C(OC(C)=O)C3OC(C)=O)c1-2 (stereo not drawn) | inactive
